Hey, just so you know, these numbers are from the SangsterLogP compilation.

Reported logP values for a set of compounds
No unit in the answer, please; the number alone is enough.

COc1ccccc1NC(=O)Nc1ccccc1OC = 2.98
c1ccc(-c2csnn2)cc1 = 2.42

Now for the compound whose logP we want.
Item under review: CN1C(=O)CCC1=O . Reported logP?
-0.95

====

endpoint: logP

// below: answered compounds
c1ccc(-c2cnc(-c3ccccc3)o2)cc1 = 4.67
CNc1c(Cl)cccc1Cl = 2.91
CC(=O)OC(C)(C)C = 1.76
N#Cc1ccncc1C#N = 0.24
Cc1cc2ccccc2cn1 = 2.68
CCOC(=O)Nc1cccc(OC(=O)Nc2ccccc2)c1 = 3.39
CN(C(=S)c1ccccc1)c1ccccc1 = 3.12
COc1ccc(CC#N)cc1OC = 1.15
ON=Cc1nnc(-c2ccccc2)o1 = 2.03
CCCCOC = 1.66

Lab note: next compound to report on.
What does the data say about its logP? Entry: Cc1ccno1
0.45

====

Measured logP values are reported for all entries that follow.
// print number alone

Reference set, count: 5
Cn1c(=O)sc2ccccc21 = 1.98
CC(=O)N=c1[nH]c(=O)ccn1C1OC(COC(C)=O)C(OC(C)=O)C1OC(C)=O (stereo unspecified) = -0.16
O=C1CCc2cccc3c2N1CC3 = 1.6
FN(F)C(c1ccccc1)(c1ccccc1)c1ccccc1 = 3.73
Nc1cc(C(F)(F)F)ccc1Cl = 3.06

Please look at the following molecule next.
Need logP, item CC(C)Nc1nc(N)nc(SC(F)F)n1
2.68
